# TARGET OF ASSAY: M1 muscarinic receptor (Homo sapiens, UniProt P11229)
# Construct: expressed in transfected cells; host or cells: NIH-3T3 cells (ATCC CRL 1658)
# PROCEDURE TEXT: R-SAT functional assay, muscarinic M1 receptor
# Type: cell-based
# CONDITION CONTEXT: R-SAT, transfected NIH-3T3 cells; read-out: M1 pEC50 (converted)
# From the text: The M1 and M4 muscarinic receptor subtypes were cloned substantially as described by Bonner et al., (1987) Science […] p. 527 and Bonner et al, (1988) Neuron 1, p. 403. […] On day 5, the cells were lysed using 0.5% nonidet-P and β-galactosidase expression was quantified using the chromogenic substrate o-nitrophenyl-p-D-galactoside (ONGP). […]
VALUE KIND: EC50 (nM)
Express the result in nM but write the number alone.

Known results for compounds:
INSERT INTO assay_data (compound, value_kind, unit_descriptor, observed_result) VALUES
  ('CCCOC1CCN(CC(C)Cn2c(=O)sc3ccccc32)CC1 (stereo not drawn) [Compound 85LM49B]', 'EC50', 'nM', 25.1),
  ('CCCCC1CCN(CCCN2C(=O)Cc3ccccc32)CC1', 'EC50', 'nM', 126),
  ('CCCCC=C1CCN(CCCn2c(=O)[nH]c3ccccc32)CC1 [Compound 61KS-13]', 'EC50', 'nM', 39.8);

Given item CCCCC1CCN(CCCn2c(=O)sc3ccccc32)CC1 [Compound 62KK040d] , the value recorded as its EC50 is 25.1

Given item `CCCOC1CCN(CCCn2c(=O)sc3ccccc32)CC1` , the value recorded as its EC50 is 79.4

Given item CC(C)CC=C1CCN(CCCn2c(=O)[nH]c3ccccc32)CC1 [Compound 45NK-70] , the value recorded as its EC50 is 50.1

Given item CCCC=C1CCN(CCCn2c(=O)[nH]c3ccccc32)CC1 [Compound 61KS-12] , the value recorded as its EC50 is 31.6

Given item CCCCCC1CCN(CCCn2c(=O)[nH]c3ccccc32)CC1 [Compound 45NK-71] , the value recorded as its EC50 is 100

Given item CCCCCC1CC2CCC(C1)N2CCCn1c(=O)sc2ccccc21 (stereo not drawn) , the value recorded as its EC50 is 6.31

Given item CCCCC1CCN(C[C@@H](C)Cn2c(=O)sc3ccccc32)CC1 [Compound 85LM91-78R] , the value recorded as its EC50 is 31.6

Given item CCCCC1CCN(CCCn2c(=O)[nH]c3ccccc32)CC1 [Compound 61KS-19] , the value recorded as its EC50 is 25.1

Given item `CCCCC1CCN(CCCn2c(=O)oc3cccc(C)c32)CC1` , the value recorded as its EC50 is 100

----------
Measured Emax, listed per entry for reference.
# TARGET OF ASSAY: M1 muscarinic receptor (Homo sapiens)
# Construct: expressed in transfected cells; host or cells: NIH-3T3 cells (ATCC CRL 1658)
# Sequence (P11229 1-460): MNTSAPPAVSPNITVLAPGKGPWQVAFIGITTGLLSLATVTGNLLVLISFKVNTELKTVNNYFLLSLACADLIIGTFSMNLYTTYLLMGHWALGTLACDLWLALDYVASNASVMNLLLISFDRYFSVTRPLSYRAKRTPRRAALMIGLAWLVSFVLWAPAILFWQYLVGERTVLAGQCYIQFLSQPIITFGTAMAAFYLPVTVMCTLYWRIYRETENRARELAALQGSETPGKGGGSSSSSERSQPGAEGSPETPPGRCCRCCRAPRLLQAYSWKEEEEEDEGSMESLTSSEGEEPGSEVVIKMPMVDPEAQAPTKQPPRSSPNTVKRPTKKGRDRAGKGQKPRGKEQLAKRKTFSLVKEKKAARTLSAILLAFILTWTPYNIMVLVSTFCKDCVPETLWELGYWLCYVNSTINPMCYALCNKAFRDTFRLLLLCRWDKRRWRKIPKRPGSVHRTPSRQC
# PROCEDURE TEXT: R-SAT functional assay, muscarinic M1 receptor
# Assay type: cell-based
# CONDITION CONTEXT: NIH3T3; R-SAT, transfected NIH-3T3 cells, relative to maximum response to carbachol; read-out: M1 % Efficacy
Express the result in % but write the number alone.

Known results for compounds:
INSERT INTO assay_data (compound, observed_result) VALUES
  ('CCCCC1CCN(CCCn2c(=O)n(C)c3ccccc32)CC1 [Compound 45NK-110]', 89),
  ('CCCCC1CCN(CCCn2c(=O)sc3ccccc32)CC1 [Compound 62KK040d]', 83),
  ('CCCCC1CCN(CCCn2c(=O)oc3cccc(C)c32)CC1', 73),
  ('CCCCCC1CCN(CCCn2c(=O)[nH]c3ccccc32)CC1 [Compound 45NK-71]', 71);

Given item `CCCCC1CCN(CCCn2c(=O)oc3cc(F)ccc32)CC1` , the value recorded as its Emax is 71

Given item `CCCCC1CCN(CCCn2c(=O)oc3ccc(F)cc32)CC1` , the value recorded as its Emax is 75

Given item CC(C)CC=C1CCN(CCCn2c(=O)[nH]c3ccccc32)CC1 [Compound 45NK-70] , the value recorded as its Emax is 70

Given item CCCCC1CCN(CC(C)Cn2c(=O)sc3ccccc32)CC1 (stereo not drawn) , the value recorded as its Emax is 104

Given item CCCCCC1CC2CCC(C1)N2CCCn1c(=O)sc2ccccc21 (stereo not drawn) , the value recorded as its Emax is 70

Given item CCCCC1CC2CCC(C1)N2CCCn1c(=O)sc2ccccc21 (stereo not drawn) , the value recorded as its Emax is 63

Given item CCCCC1CCN(CCCn2c(=O)[nH]c3ccccc32)CC1 [Compound 61KS-19] , the value recorded as its Emax is 115

Given item CCCCC=C1CCN(CCCn2c(=O)[nH]c3ccccc32)CC1 [Compound 61KS-13] , the value recorded as its Emax is 106

Given item CCCC=C1CCN(CCCn2c(=O)[nH]c3ccccc32)CC1 [Compound 61KS-12] , the value recorded as its Emax is 107

Given item CCCOC1CCN(CC(C)Cn2c(=O)sc3ccccc32)CC1 (stereo not drawn) [Compound 85LM49B] , the value recorded as its Emax is 98

Given item `CCCCC1CCN(CCCN2C(=O)Cc3ccccc32)CC1` , the value recorded as its Emax is 78

Given item `CCCCC1CCN(CCCn2c(=O)oc3ccc(C)cc32)CC1` , the value recorded as its Emax is 84

Given item `CCCOC1CCN(CCCn2c(=O)sc3ccccc32)CC1` , the value recorded as its Emax is 96

Given item CCCCC1CCN(C[C@@H](C)Cn2c(=O)sc3ccccc32)CC1 [Compound 85LM91-78R] , the value recorded as its Emax is 99

----------
# TARGET OF ASSAY: M4 muscarinic receptor (Homo sapiens, UniProt P08173)
# Construct: expressed in transfected cells; host or cells: NIH-3T3 cells (ATCC CRL 1658)
# Sequence (P08173 whole entry): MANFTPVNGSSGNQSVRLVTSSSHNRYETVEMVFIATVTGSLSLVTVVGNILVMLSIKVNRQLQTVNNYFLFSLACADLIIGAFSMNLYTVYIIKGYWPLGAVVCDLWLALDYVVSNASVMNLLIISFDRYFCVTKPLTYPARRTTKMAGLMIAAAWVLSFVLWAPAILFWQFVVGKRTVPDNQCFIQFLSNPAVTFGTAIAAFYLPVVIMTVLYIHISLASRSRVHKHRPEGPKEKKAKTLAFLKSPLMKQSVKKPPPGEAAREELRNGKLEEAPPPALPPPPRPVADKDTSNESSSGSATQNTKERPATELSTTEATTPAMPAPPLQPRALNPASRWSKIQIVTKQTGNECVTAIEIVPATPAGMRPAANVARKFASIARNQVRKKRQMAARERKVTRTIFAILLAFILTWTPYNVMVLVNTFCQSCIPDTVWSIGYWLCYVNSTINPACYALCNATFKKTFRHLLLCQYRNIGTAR
# PROCEDURE TEXT: R-SAT functional assay, muscarinic M4 receptor
# Assay type: cell-based
# CONDITION CONTEXT: NIH3T3; R-SAT, transfected NIH-3T3 cells, relative to maximum response to carbachol; read-out: M4 % Efficacy
Field 'label' (enum: 1 / -1). Set to 1 when Emax is strictly under 60%; else -1.

See these solved cases before continuing.
INSERT INTO assay_data (compound, class_name) VALUES
  ('CCCC=C1CCN(CCCn2c(=O)[nH]c3ccccc32)CC1 [Compound 61KS-12]', -1),
  ('CCCOC1CCN(CCCn2c(=O)sc3ccccc32)CC1 [Compound 61KS70-1]', -1),
  ('CCCCC1CCN(CCCn2c(=O)[nH]c3ccccc32)CC1 [Compound 61KS-19]', -1);

Problem: Regarding CCCCC1CCN(CCCn2c(=O)oc3ccc(F)cc32)CC1 [Compound 86KK22-K] , kindly confirm whether its Emax is beneath 60%.
Solution: 1

Problem: Regarding CCCCC1CC2CCC(C1)N2CCCn1c(=O)sc2ccccc21 (centres unmarked) [Compound 97KS96-2] , kindly confirm whether its Emax is beneath 60%.
Solution: 1

----------
Measured IC50, listed per entry for reference.
# TARGET OF ASSAY: human dopamine D2 receptor (Homo sapiens, UniProt P14416)
# Construct: expressed in transfected cells; host or cells: tSA cells
# Sequence (P14416 1-414 isoform P14416-2): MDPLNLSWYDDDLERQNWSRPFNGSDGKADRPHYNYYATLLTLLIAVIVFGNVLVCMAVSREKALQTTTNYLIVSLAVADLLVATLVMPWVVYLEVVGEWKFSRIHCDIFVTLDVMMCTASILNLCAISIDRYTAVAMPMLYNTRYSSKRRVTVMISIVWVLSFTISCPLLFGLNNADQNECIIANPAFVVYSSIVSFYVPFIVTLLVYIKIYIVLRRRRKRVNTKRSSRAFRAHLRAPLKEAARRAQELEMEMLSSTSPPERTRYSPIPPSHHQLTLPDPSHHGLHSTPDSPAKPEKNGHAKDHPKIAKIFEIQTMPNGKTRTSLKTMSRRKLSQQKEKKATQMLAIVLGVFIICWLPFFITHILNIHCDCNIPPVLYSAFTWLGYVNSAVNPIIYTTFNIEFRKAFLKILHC
# PROCEDURE TEXT: [3H]-Spiperone radioligand binding to D2 receptor membranes
# CONDITION CONTEXT: tSA cell membranes, 150 pM [3H]-Spiperone; read-out: D2 [3H]Spiperone pIC50 (converted)
Express the result in nM but write the number alone.

Known results for compounds:
INSERT INTO measurements (compound, unit_descriptor, observed_result) VALUES
  ('CCCCC1CCN(CCCn2c(=O)oc3cc(F)ccc32)CC1', 'nM', 251),
  ('CCCCC1CCN(CCCN2C(=O)Cc3ccccc32)CC1', 'nM', 398),
  ('CCCCC1CCN(CCCn2c(=O)oc3cccc(C)c32)CC1', 'nM', 631);

# lookup: CCCCCC1CCN(CCCn2c(=O)[nH]c3ccccc32)CC1 [Compound 45NK-71] on human dopamine D2 receptor (Homo sapiens, UniProt P14416), IC50 = 398

# lookup: CCCC=C1CCN(CCCn2c(=O)[nH]c3ccccc32)CC1 [Compound 61KS-12] on human dopamine D2 receptor (Homo sapiens, UniProt P14416), IC50 = 1000

# lookup: CCCCC1CCN(CCCn2c(=O)[nH]c3ccccc32)CC1 [Compound 61KS-19] on human dopamine D2 receptor (Homo sapiens, UniProt P14416), IC50 = 794

# lookup: CCCCC1CCN(CCCn2c(=O)sc3ccccc32)CC1 [Compound 62KK040d] on human dopamine D2 receptor (Homo sapiens, UniProt P14416), IC50 = 79.4

# lookup: CCCCC=C1CCN(CCCn2c(=O)[nH]c3ccccc32)CC1 [Compound 61KS-13] on human dopamine D2 receptor (Homo sapiens, UniProt P14416), IC50 = 398

# lookup: CCCCCC1CC2CCC(C1)N2CCCn1c(=O)sc2ccccc21 (stereo not shown) on human dopamine D2 receptor (Homo sapiens, UniProt P14416), IC50 = 100

# lookup: `CCCOC1CCN(CCCn2c(=O)sc3ccccc32)CC1` on human dopamine D2 receptor (Homo sapiens, UniProt P14416), IC50 = 316

# lookup: CC(C)CC=C1CCN(CCCn2c(=O)[nH]c3ccccc32)CC1 [Compound 45NK-70] on human dopamine D2 receptor (Homo sapiens, UniProt P14416), IC50 = 631

# lookup: CCCCC1CCN(CCCn2c(=O)n(C)c3ccccc32)CC1 [Compound 45NK-110] on human dopamine D2 receptor (Homo sapiens, UniProt P14416), IC50 = 3160

# lookup: CCCCC1CC2CCC(C1)N2CCCn1c(=O)sc2ccccc21 (stereo not shown) on human dopamine D2 receptor (Homo sapiens, UniProt P14416), IC50 = 100

# lookup: CCCCC1CCN(C[C@@H](C)Cn2c(=O)sc3ccccc32)CC1 [Compound 85LM91-78R] on human dopamine D2 receptor (Homo sapiens, UniProt P14416), IC50 = 50.1

# lookup: `CCCCC1CCN(CCCn2c(=O)oc3ccc(F)cc32)CC1` on human dopamine D2 receptor (Homo sapiens, UniProt P14416), IC50 = 631

# lookup: CCCCC1CCN(CC(C)Cn2c(=O)sc3ccccc32)CC1 (stereo not shown) on human dopamine D2 receptor (Homo sapiens, UniProt P14416), IC50 = 79.4
